Ref: patent US9957299B2

Biological target: UniProtKB Q00987
Assay: FP Competition Blinding Assay | HDM2 IC50 (nM)
Bridge positions count the residues as written; N and C are the ends. Square brackets hold non-standard residues; d marks the D form. Peptide text beside a SMILES is read from it. R8 = C=CCCCCCC[C@@](C)(N)C(=O)O; S5 = C=CCCC[C@](C)(N)C(=O)O
Parameter IC50: see the listing below.
Reply numerically in nM, unit not repeated.

# example entries with known answers
GET /value?item= CC(=O)N[C@@H](CC(C)C)C(=O)N[C@H](C(=O)N[C@@H](Cc1ccccc1)C(=O)N[C@]1(C)CCCCCCC=CCCC[C@@](C)(C(=O)N[C@@H](CO)C(N)=O)NC(=O)[C@H](CC(C)C)NC(=O)[C@H](CCC(N)=O)NC(=O)[C@H](C)NC(=O)[C@H](Cc2c[nH]c3ccccc23)NC(=O)[C@H](Cc2ccc(O)cc2)NC(=O)[C@H](CCC(=O)O)NC1=O)[C@@H](C)O [SP-512, Ac- L T F $r8 E Y W A Q F $ S -NH2] (Ac-LTF[R8]EYWAQL[S5]S-NH2; staple 4-11) &field=IC50 returns 16.2

GET /value?item= CC(=O)N[C@@H](CC(C)C)C(=O)N[C@H](C(=O)N[C@@H](Cc1ccccc1)C(=O)N[C@]1(C)CCCCCCC=CCCC[C@@](C)(C(=O)N[C@@H](CO)C(N)=O)NC(=O)[C@H](CC(C)C)NC(=O)[C@H](CCC(N)=O)NC(=O)[C@H](C)NC(=O)[C@H](Cc2c[nH]c3ccccc23)NC(=O)[C@H](Cc2ccc(O)cc2)NC(=O)[C@H](C(C)C)NC1=O)[C@@H](C)O [SP-266, Ac- L T F $r8 V Y W A Q L $ S -NH2] (Ac-LTF[R8]VYWAQL[S5]S-NH2; staple 4-11) &field=IC50 returns 66

New cases:
GET /value?item= CC(=O)N[C@@H](CC(C)C)C(=O)N[C@H](C(=O)N[C@@H](Cc1ccccc1)C(=O)N[C@]1(C)CCCCCCC=CCCC[C@@](C)(C(=O)N[C@@H](CO)C(N)=O)NC(=O)[C@H](CC(C)C)NC(=O)[C@H](CCC(N)=O)NC(=O)[C@H](C)NC(=O)[C@H](Cc2c[nH]c3ccccc23)NC(=O)[C@H](Cc2ccc(O)cc2)NC(=O)[C@H](C)NC1=O)[C@@H](C)O [SP-191, Ac- L T F $r8 A Y W A Q L $ S -NH2] (Ac-LTF[R8]AYWAQL[S5]S-NH2; staple 4-11) &field=IC50 returns 74.9

* * *

Molecular target: HDM2 (Homo sapiens)
Sequence (Q00987 whole entry, looked up): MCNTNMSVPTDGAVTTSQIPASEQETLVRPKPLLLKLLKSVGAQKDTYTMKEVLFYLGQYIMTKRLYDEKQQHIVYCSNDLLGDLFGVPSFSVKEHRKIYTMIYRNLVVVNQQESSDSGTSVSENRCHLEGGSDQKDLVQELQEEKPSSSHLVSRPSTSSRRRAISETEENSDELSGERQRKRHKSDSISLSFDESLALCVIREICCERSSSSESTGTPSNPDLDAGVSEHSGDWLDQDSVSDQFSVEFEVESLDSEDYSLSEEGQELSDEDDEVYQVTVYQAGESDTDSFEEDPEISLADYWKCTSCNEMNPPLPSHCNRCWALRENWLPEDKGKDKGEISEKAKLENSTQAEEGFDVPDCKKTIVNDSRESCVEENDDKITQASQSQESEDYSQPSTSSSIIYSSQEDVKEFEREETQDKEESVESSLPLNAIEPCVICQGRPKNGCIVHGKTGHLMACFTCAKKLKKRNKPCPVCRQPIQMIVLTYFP
Bridge positions count the residues as written; N and C are the ends. Square brackets hold non-standard residues; d marks the D form. Peptide text beside a SMILES is read from it. R8 = C=CCCCCCC[C@@](C)(N)C(=O)O; S5 = C=CCCC[C@](C)(N)C(=O)O
experimental_readout: IC50 (nM)
Reply numerically in nM, unit not repeated.

GET /value?item= CC(=O)N[C@@H](CC(C)C)C(=O)N[C@H](C(=O)N[C@@H](Cc1ccccc1)C(=O)N[C@]1(C)CCCCCCC=CCCC[C@@](C)(C(=O)N[C@@H](CO)C(N)=O)NC(=O)[C@H](CC(C)C)NC(=O)[C@H](CCC(N)=O)NC(=O)[C@H](CO)NC(=O)[C@H](Cc2c[nH]c3ccccc23)NC(=O)[C@H](Cc2ccc(O)cc2)NC(=O)[C@H](C)NC1=O)[C@@H](C)O [SP-360, Ac- L T F $r8 A Y W S Q L $ S -NH2] (Ac-LTF[R8]AYWSQL[S5]S-NH2; staple 4-11) &field=IC50 returns 90
